- System: influenza A0 virus
- EXPERIMENT SUMMARY: animal or person
- Assay type: in vivo, mice
- CONDITION NOTES: Mus musculus, 360 h; oral, 100 mg/kg, twice a day for 14 days; survivors at 15th day; read-out: Survival rate
Reported responders at 100 mg/kg values for the following compounds.
Numbers only here, please. The scale is %.

Observe how each entry below is paired with its result.
| COMPOUND | ASSAYED TARGET | responders at 100 mg/kg / % |
| --- | --- | --- |
| NS(=O)(=O)c1cc(C(=O)O)cc(Cl)c1Cl [Compound 20] | influenza A0 virus | 60 |
| CN1CCN(S(=O)(=O)c2cc(C(=O)O)ccc2Cl)CC1 [Compound 13] | influenza A0 virus | 50 |
| NNS(=O)(=O)c1cc(C(=O)O)ccc1Cl [Compound 7] | influenza A0 virus | 40 |

Now for the compound whose responders at 100 mg/kg we want.
Data point: NS(=O)(=O)c1cc(C(=O)O)c(Br)cc1Cl [Compound 18] ; responders at 100 mg/kg = 50
